Recorded normalised inhibition (eCFP-eYFP dual reporter) for the following substances
# Test System: UBE2T
# Assay Details: reporter assay of Huesken 2005; further: test concentration or dose not given here
# Test Settings: siRNA
Oligonucleotides are written 5' to 3', each unit as a sugar letter and its base; * is a phosphorothioate linkage, no mark a phosphodiester; rarer units and linkages stand in square brackets, end groups in braces. Plain capitals give the bases only. d = 2'-deoxy (DNA); r = 2'-OH (RNA)
A number alone suffices; assume %.

Exam item: Hello, I am looking for reported normalised inhibition (eCFP-eYFP dual reporter) with UBE2T for sense rArArUrGrCrCrArGrArCrArGrUrGrGrArCrArGdTdT / antisense rCrUrGrUrCrCrArCrUrGrUrCrUrGrGrCrArUrUdCdT . Could you help?
Marked response: 77.5

---

# Test System: TMEM63B
# Assay Details: reporter assay of Huesken 2005
# Test Settings: siRNA
Oligonucleotides are given in HELM: sugar(base)linkage, 5' to 3'; d 2'-deoxyribose, r ribose, m 2'-O-methylribose, p phosphate. ss, as = sense and antisense strand
Recorded normalised inhibition (eCFP-eYFP dual reporter) for the following substances
A number alone suffices; assume %.

Substance	Measured
RNA1{r(C)p.r(A)p.r(G)p.r(C)p.r(C)p.r(A)p.r(U)p.r(C)p.r(A)p.r(U)p.r(C)p.r(A)p.r(U)p.r(C)p.r(A)p.r(C)p.r(C)p.r(A)p.r(C)p.d(T)p.d(T)}|RNA2{r(G)p.r(U)p.r(G)p.r(G)p.r(U)p.r(G)p.r(A)p.r(U)p.r(G)p.r(A)p.r(U)p.r(G)p.r(A)p.r(U)p.r(G)p.r(G)p.r(C)p.r(U)p.r(G)p.d(G)p.d(A)}$$$RNA1{StrandType:ss}|RNA2{StrandType:as}$	74.3

Next up:
Exam item: Given the entry RNA1{r(A)p.r(G)p.r(C)p.r(C)p.r(U)p.r(A)p.r(C)p.r(C)p.r(C)p.r(C)p.r(A)p.r(A)p.r(C)p.r(U)p.r(G)p.r(C)p.r(A)p.r(C)p.r(A)p.d(T)p.d(T)}|RNA2{r(U)p.r(G)p.r(U)p.r(G)p.r(C)p.r(A)p.r(G)p.r(U)p.r(U)p.r(G)p.r(G)p.r(G)p.r(G)p.r(U)p.r(A)p.r(G)p.r(G)p.r(C)p.r(U)p.d(T)p.d(C)}$$$RNA1{StrandType:ss}|RNA2{StrandType:as}$ , report its measured normalised inhibition (eCFP-eYFP dual reporter).
Marked response: 70.7

---

# Test System: SOST
# Assay Details: reporter assay of Huesken 2005
# Test Settings: siRNA
Oligonucleotides are given in HELM: sugar(base)linkage, 5' to 3'; d 2'-deoxyribose, r ribose, m 2'-O-methylribose, p phosphate. ss, as = sense and antisense strand
Recorded normalised inhibition (eCFP-eYFP dual reporter) for the following substances
A number alone suffices; assume %.

Reference set, count: 2
Substance	Measured
RNA1{r(A)p.r(C)p.r(A)p.r(A)p.r(C)p.r(A)p.r(A)p.r(G)p.r(A)p.r(C)p.r(C)p.r(A)p.r(U)p.r(G)p.r(A)p.r(A)p.r(C)p.r(C)p.r(G)p.d(T)p.d(T)}|RNA2{r(C)p.r(G)p.r(G)p.r(U)p.r(U)p.r(C)p.r(A)p.r(U)p.r(G)p.r(G)p.r(U)p.r(C)p.r(U)p.r(U)p.r(G)p.r(U)p.r(U)p.r(G)p.r(U)p.d(T)p.d(C)}$$$RNA1{StrandType:ss}|RNA2{StrandType:as}$	52.2
RNA1{r(G)p.r(C)p.r(U)p.r(G)p.r(C)p.r(A)p.r(C)p.r(U)p.r(U)p.r(C)p.r(A)p.r(C)p.r(C)p.r(C)p.r(G)p.r(C)p.r(U)p.r(A)p.r(C)p.d(T)p.d(T)}|RNA2{r(G)p.r(U)p.r(A)p.r(G)p.r(C)p.r(G)p.r(G)p.r(G)p.r(U)p.r(G)p.r(A)p.r(A)p.r(G)p.r(U)p.r(G)p.r(C)p.r(A)p.r(G)p.r(C)p.d(T)p.d(C)}$$$RNA1{StrandType:ss}|RNA2{StrandType:as}$	75.4

Next up:
Exam item: Given the entry RNA1{r(C)p.r(G)p.r(G)p.r(C)p.r(G)p.r(C)p.r(G)p.r(C)p.r(C)p.r(U)p.r(G)p.r(C)p.r(U)p.r(G)p.r(C)p.r(C)p.r(C)p.r(A)p.r(A)p.d(T)p.d(T)}|RNA2{r(U)p.r(U)p.r(G)p.r(G)p.r(G)p.r(C)p.r(A)p.r(G)p.r(C)p.r(A)p.r(G)p.r(G)p.r(C)p.r(G)p.r(C)p.r(G)p.r(C)p.r(C)p.r(G)p.d(G)p.d(G)}$$$RNA1{StrandType:ss}|RNA2{StrandType:as}$ , report its measured normalised inhibition (eCFP-eYFP dual reporter).
Marked response: 84.6

Measured values drawn from the OligoGym collection for this set.
